assay-name: Solvation interaction parameters by inverse gas-liquid chromatography (Abraham solvation model)
Type: physicochemical
experimental-conditions: 100° C.
metric-name: l (dispersion forces)

QUERY: Please report the recorded l (dispersion forces) for Cn1cc[n+](CCCCCCCCC[n+]2ccn(C)c2)c1.O=S(=O)([N-]S(=O)(=O)C(F)(F)F)C(F)(F)F.O=S(=O)([N-]S(=O)(=O)C(F)(F)F)C(F)(F)F [C9(mim)2-NTf2] .
RESULT: 0.43

QUERY: Queued: O=S(=O)([N-]S(=O)(=O)C(F)(F)F)C(F)(F)F.O=S(=O)([N-]S(=O)(=O)C(F)(F)F)C(F)(F)F.c1ccc(Cn2cc[n+](CCCCCCCCCCCC[n+]3ccn(Cc4ccccc4)c3)c2)cc1 [C12(benzim)2-NTf2]
RESULT: 0.46

QUERY: Queued: C[n+]1ccn(CCCCn2cc[n+](C)c2)c1.O=S(=O)([N-]S(=O)(=O)C(F)(F)F)C(F)(F)F.O=S(=O)([N-]S(=O)(=O)C(F)(F)F)C(F)(F)F [C4(mim)2-NTf2]
RESULT: 0.37

QUERY: Queued: C[N+]1(CCCCCCCCC[N+]2(C)CCCC2)CCCC1.O=S(=O)([N-]S(=O)(=O)C(F)(F)F)C(F)(F)F.O=S(=O)([N-]S(=O)(=O)C(F)(F)F)C(F)(F)F [C9(mpy)2-NTf2]
RESULT: 0.42

QUERY: Queued: CCCCCCCCC[n+]1ccn(C)c1.O=S(=O)([N-]S(=O)(=O)C(F)(F)F)C(F)(F)F [nmim-NTf2]
RESULT: 0.60

* * *

assay-name: Solvation interaction parameters by inverse gas-liquid chromatography (Abraham solvation model)
Format: physicochemical
experimental-conditions: 40° C.
metric-name: b (hydrogen bond acidity)
Lab note: jot down the number only; don't add units.

QUERY: Please report the recorded b (hydrogen bond acidity) for C[N+]1(CCCCCCCCC[N+]2(C)CCCC2)CCCC1.O=S(=O)([N-]S(=O)(=O)C(F)(F)F)C(F)(F)F.O=S(=O)([N-]S(=O)(=O)C(F)(F)F)C(F)(F)F .
RESULT: 0.32

QUERY: Queued: C[n+]1ccn(CCCCn2cc[n+](C)c2)c1.O=S(=O)([N-]S(=O)(=O)C(F)(F)F)C(F)(F)F.O=S(=O)([N-]S(=O)(=O)C(F)(F)F)C(F)(F)F
RESULT: 0.50

QUERY: Queued: CCCCCCCCC[n+]1ccn(C)c1.O=S(=O)([N-]S(=O)(=O)C(F)(F)F)C(F)(F)F
RESULT: 0.36

QUERY: Queued: Cn1cc[n+](CCCCCCCCC[n+]2ccn(C)c2)c1.O=S(=O)([N-]S(=O)(=O)C(F)(F)F)C(F)(F)F.O=S(=O)([N-]S(=O)(=O)C(F)(F)F)C(F)(F)F
RESULT: 0.47

QUERY: Queued: O=S(=O)([N-]S(=O)(=O)C(F)(F)F)C(F)(F)F.O=S(=O)([N-]S(=O)(=O)C(F)(F)F)C(F)(F)F.c1ccc(Cn2cc[n+](CCCCCCCCCCCC[n+]3ccn(Cc4ccccc4)c3)c2)cc1
RESULT: 0.84

* * *

assay-name: Solvation interaction parameters by inverse gas-liquid chromatography (Abraham solvation model)
Format: physicochemical
experimental-conditions: 100° C.
metric-name: b (hydrogen bond acidity)

QUERY: Please report the recorded b (hydrogen bond acidity) for C[N+]1(CCCCCCCCC[N+]2(C)CCCC2)CCCC1.O=S(=O)([N-]S(=O)(=O)C(F)(F)F)C(F)(F)F.O=S(=O)([N-]S(=O)(=O)C(F)(F)F)C(F)(F)F [C9(mpy)2-NTf2] .
RESULT: 0.15

QUERY: Queued: O=S(=O)([N-]S(=O)(=O)C(F)(F)F)C(F)(F)F.O=S(=O)([N-]S(=O)(=O)C(F)(F)F)C(F)(F)F.c1ccc(Cn2cc[n+](CCCCCCCCCCCC[n+]3ccn(Cc4ccccc4)c3)c2)cc1 [C12(benzim)2-NTf2]
RESULT: 0.52

QUERY: Queued: C[n+]1ccn(CCCCn2cc[n+](C)c2)c1.O=S(=O)([N-]S(=O)(=O)C(F)(F)F)C(F)(F)F.O=S(=O)([N-]S(=O)(=O)C(F)(F)F)C(F)(F)F [C4(mim)2-NTf2]
RESULT: 0.33

QUERY: Queued: CCCCCCCCC[n+]1ccn(C)c1.O=S(=O)([N-]S(=O)(=O)C(F)(F)F)C(F)(F)F [nmim-NTf2]
RESULT: 0.12

QUERY: Queued: Cn1cc[n+](CCCCCCCCC[n+]2ccn(C)c2)c1.O=S(=O)([N-]S(=O)(=O)C(F)(F)F)C(F)(F)F.O=S(=O)([N-]S(=O)(=O)C(F)(F)F)C(F)(F)F [C9(mim)2-NTf2]
RESULT: 0.15

* * *

assay-name: Solvation interaction parameters by inverse gas-liquid chromatography (Abraham solvation model)
Type: physicochemical
experimental-conditions: 40° C.
metric-name: r (interaction via nonbonding and π-electrons)
Lab note: jot down the number only; don't add units.

QUERY: Please report the recorded r (interaction via nonbonding and π-electrons) for O=S(=O)([N-]S(=O)(=O)C(F)(F)F)C(F)(F)F.O=S(=O)([N-]S(=O)(=O)C(F)(F)F)C(F)(F)F.c1ccc(Cn2cc[n+](CCCCCCCCCCCC[n+]3ccn(Cc4ccccc4)c3)c2)cc1 .
RESULT: 0.11

QUERY: Queued: Cn1cc[n+](CCCCCCCCC[n+]2ccn(C)c2)c1.O=S(=O)([N-]S(=O)(=O)C(F)(F)F)C(F)(F)F.O=S(=O)([N-]S(=O)(=O)C(F)(F)F)C(F)(F)F
RESULT: 0.16

QUERY: Queued: CCCCCCCCC[n+]1ccn(C)c1.O=S(=O)([N-]S(=O)(=O)C(F)(F)F)C(F)(F)F
RESULT: 0

QUERY: Queued: C[n+]1ccn(CCCCn2cc[n+](C)c2)c1.O=S(=O)([N-]S(=O)(=O)C(F)(F)F)C(F)(F)F.O=S(=O)([N-]S(=O)(=O)C(F)(F)F)C(F)(F)F
RESULT: 0.25

QUERY: Queued: C[N+]1(CCCCCCCCC[N+]2(C)CCCC2)CCCC1.O=S(=O)([N-]S(=O)(=O)C(F)(F)F)C(F)(F)F.O=S(=O)([N-]S(=O)(=O)C(F)(F)F)C(F)(F)F
RESULT: 0.27

* * *

Method: Thermal stabilities were measured by immobilizing an approximate 0.15-0.20 microns film of the ionic liquid on the inner wall of a fused silica capillary. […] The thermal stability is measured in the absence of oxygen by purging the capillary with a continuous flow of an inert gas such as helium, hydrogen, or nitrogen. […]
Please provide measured thermal stability (volatilization/decomposition temperature) for the entries that follow.

QUERY: Please report the recorded thermal stability (volatilization/decomposition temperature) for CCCC[N+]1(CCCCCCCCC[N+]2(CCCC)CCCC2)CCCC1.O=S(=O)([N-]S(=O)(=O)C(F)(F)F)C(F)(F)F.O=S(=O)([N-]S(=O)(=O)C(F)(F)F)C(F)(F)F .
RESULT: 330 °C

QUERY: Queued: Cn1cc[n+](CCCCCCCCC[n+]2ccn(C)c2)c1.O=S(=O)([N-]S(=O)(=O)C(F)(F)F)C(F)(F)F.O=S(=O)([N-]S(=O)(=O)C(F)(F)F)C(F)(F)F
RESULT: 350-360 °C

QUERY: Queued: O=S(=O)([N-]S(=O)(=O)C(F)(F)F)C(F)(F)F.O=S(=O)([N-]S(=O)(=O)C(F)(F)F)C(F)(F)F.c1ccc(Cn2cc[n+](CCCCCCCCCCCC[n+]3ccn(Cc4ccccc4)c3)c2)cc1
RESULT: 350-360 °C

QUERY: Queued: C[N+]1(CCCCCCCCC[N+]2(C)CCCC2)CCCC1.O=S(=O)([N-]S(=O)(=O)C(F)(F)F)C(F)(F)F.O=S(=O)([N-]S(=O)(=O)C(F)(F)F)C(F)(F)F
RESULT: > 400 °C

* * *

experimental-conditions: water
metric-name: Miscibility with Water

- molecule: "Cc1n(C)cc[n+]1CCC[n+]1ccn(C)c1C.O=S(=O)([N-]S(=O)(=O)C(F)(F)F)C(F)(F)F.O=S(=O)([N-]S(=O)(=O)C(F)(F)F)C(F)(F)F [C3(m2im)2-NTf2]"
  metric-name: "Miscibility with Water"
  test-result: "Immiscible"
- molecule: "F[P-](F)(F)(F)(F)F.F[P-](F)(F)(F)(F)F.c1ccc(Cn2cc[n+](CCCCCCCCCCCC[n+]3ccn(Cc4ccccc4)c3)c2)cc1 [C12(benzim)2-PF6]"
  metric-name: "Miscibility with Water"
  test-result: "Immiscible"

* * *

assay-name: Solvation interaction parameters by inverse gas-liquid chromatography (Abraham solvation model)
Type: physicochemical
experimental-conditions: 100° C.
Please provide measured c (interaction parameter table, constant) for the entries that follow.
Lab note: jot down the number only; don't add units.

QUERY: Please report the recorded c (interaction parameter table, constant) for Cn1cc[n+](CCCCCCCCC[n+]2ccn(C)c2)c1.O=S(=O)([N-]S(=O)(=O)C(F)(F)F)C(F)(F)F.O=S(=O)([N-]S(=O)(=O)C(F)(F)F)C(F)(F)F .
RESULT: −3.06

QUERY: Queued: C[n+]1ccn(CCCCn2cc[n+](C)c2)c1.O=S(=O)([N-]S(=O)(=O)C(F)(F)F)C(F)(F)F.O=S(=O)([N-]S(=O)(=O)C(F)(F)F)C(F)(F)F
RESULT: −3.06

QUERY: Queued: CCCCCCCCC[n+]1ccn(C)c1.O=S(=O)([N-]S(=O)(=O)C(F)(F)F)C(F)(F)F
RESULT: −3.47

QUERY: Queued: C[N+]1(CCCCCCCCC[N+]2(C)CCCC2)CCCC1.O=S(=O)([N-]S(=O)(=O)C(F)(F)F)C(F)(F)F.O=S(=O)([N-]S(=O)(=O)C(F)(F)F)C(F)(F)F
RESULT: −2.99

QUERY: Queued: O=S(=O)([N-]S(=O)(=O)C(F)(F)F)C(F)(F)F.O=S(=O)([N-]S(=O)(=O)C(F)(F)F)C(F)(F)F.c1ccc(Cn2cc[n+](CCCCCCCCCCCC[n+]3ccn(Cc4ccccc4)c3)c2)cc1
RESULT: −3.12
